Hello, the source for this data is paper PMC2747801, in case you need it.

# System: P-glycoprotein (Pgp)
# test_method_notes: Pgp effect: ratio of Pgp-deficient to wild-type uptake clearance
# condition_label: ratio of Pgp-deficient Kin to wild-type Kin, CF-1 mice

molecule | Pgp Effect
N[C@H](Cc1ccc(F)cc1)C(=O)O [p-F-D-phenylalanine] | 1.1
O=C1CC2(CCCC2)CC(=O)N1CCCCN1CCN(c2ncccn2)CC1 [buspirone] | 1.0
CN(C)CCC=C1c2ccccc2CCc2ccccc21 [amitriptyline] | 1.2
NC(=O)N1c2ccccc2C=Cc2ccccc21 [carbamazepine] | 1.1
CN[C@H]1CC[C@@H](c2ccc(Cl)c(Cl)c2)c2ccccc21 [sertraline] | 1.0
N[C@@H](Cc1ccc(F)cc1)C(=O)O [p-F-L-phenylalanine] | 1.1
CCCN(CCC)S(=O)(=O)c1ccc(C(=O)O)cc1 [probenecid] | 1.4
CN(C)CCCN1c2ccccc2Sc2ccc(Cl)cc21 [chlorpromazine] | 1.0
